The origin of these recorded values is ChEMBL document CHEMBL1147125.

Test system: Bacillus subtilis
Test: Antibacterial activity against Bacillus subtils at 100 ug/100 uL after 24 hrs
Type: functional
The reader will find reported inhibition zone (IZ) values listed item by item below.

# compound, inhibition zone (IZ) (mm)
records = [
    ("C[C@H]1CC[C@@H](C(C)(C)O)CC2=C1CC[C@@H]2C [GUAIOL]", 15),
    ("C[C@@H](O)[C@H]1C(=O)N2C(C(=O)O)=C(SCCNC=N)C[C@H]12 [IMIPENEM ANHYDROUS]", 33),
    ("C[C@H]1CC[C@@H](C(C)(C)O)C(=O)C2=C1CC[C@@H]2C", 11),
    ("C[C@H]1CC[C@@H](C(C)(C)O)C[C@@H]2C1=CC(=O)[C@@H]2C", 11),
]
